Cited source for all entries: patent US10398142B2

Reported MBEC CA-MRSA values are given for each entry in this list.
# Test system: CA-MRSA (USA300-0114) biofilms
# EXPERIMENT SUMMARY: Minimum biofilm eradication concentration (MBEC), regrowth assay
# Assay type: cell-based, Staphylococcus aureus
# TEST CONTEXT: Table 5; USA300-0114

{"COMPOUND": "CCCCCCCCCCCC[n+]1cccc(-c2ccc[n+](CCCCCCCCCCCC)c2)c1.[Br-].[Br-]", "SCALE UNIT": "µM", "BOUND OPERATOR": "=", "MBEC CA-MRSA": 100}
{"COMPOUND": "CCCCCCCCCCCC[N+](C)(C)CCN(C)CCN(C)CC[N+](C)(C)CCCCCCCCCCCC.[Br-].[Br-]", "SCALE UNIT": "µM", "BOUND OPERATOR": "=", "MBEC CA-MRSA": 100}
{"COMPOUND": "CCCCCCCCCCCCCCCC[n+]1ccccc1.[Cl-] [Pyr,16, reference compound]", "SCALE UNIT": "µM", "BOUND OPERATOR": "=", "MBEC CA-MRSA": 200}
{"COMPOUND": "CCCCCCCCCCCC[N+](C)(C)CCCN(C)C.[Br-]", "SCALE UNIT": "µM", "BOUND OPERATOR": ">", "MBEC CA-MRSA": 200}
{"COMPOUND": "CCCCCCCCCCCC[n+]1ccc(-c2cc[n+](CCCCCCCCCCCC)cc2)cc1.[Br-].[Br-]", "SCALE UNIT": "µM", "BOUND OPERATOR": "=", "MBEC CA-MRSA": 100}
{"COMPOUND": "CCCCCCCCCCCC[N+](C)(C)CCC[N+](C)(CC)CCC[N+](C)(C)CCCCCCCCCCCC.[Br-].[Br-].[Br-]", "SCALE UNIT": "µM", "BOUND OPERATOR": "=", "MBEC CA-MRSA": 100}
{"COMPOUND": "CCCCCCCCCCCC[N+](C)(C)Cc1ccccc1.[Cl-] [Bn,12, benzyldimethyldodecylammonium chloride, reference compound]", "SCALE UNIT": "µM", "BOUND OPERATOR": "≤", "MBEC CA-MRSA": 200}
{"COMPOUND": "C=CC[N+](C)(CCC[N+](C)(C)CCCCCCCCCCCC)CCC[N+](C)(C)CCCCCCCCCCCC.[Br-].[Br-].[Br-]", "SCALE UNIT": "µM", "BOUND OPERATOR": "=", "MBEC CA-MRSA": 100}
{"COMPOUND": "CCCCCCCCCCCC[N+](C)(C)CCC[N+](C)(CCC[N+](C)(C)CCCCCCCCCCCC)Cc1ccccc1.[Br-].[Br-].[Br-]", "SCALE UNIT": "µM", "BOUND OPERATOR": "=", "MBEC CA-MRSA": 200}
{"COMPOUND": "CCCCCCCCCCCC[n+]1ccc(-c2cc[n+](Cc3ccccc3)cc2)cc1", "SCALE UNIT": "µM", "BOUND OPERATOR": "=", "MBEC CA-MRSA": 200}
{"COMPOUND": "CCCCCCCCCCCC[N+](C)(C)CCCN(C)CCC[N+](C)(C)CCCCCCCCCCCC.[Br-].[Br-]", "SCALE UNIT": "µM", "BOUND OPERATOR": "=", "MBEC CA-MRSA": 150}
{"COMPOUND": "CCCCCCCCCCCC[N+](C)(C)CC[N+](C)(C)CCCCCCCCCCCC", "SCALE UNIT": "µM", "BOUND OPERATOR": "=", "MBEC CA-MRSA": 200}
{"COMPOUND": "CCCCCCCCCCCC[n+]1cccc(-c2ccc[n+](Cc3ccccc3)c2)c1.[Br-].[Br-]", "SCALE UNIT": "µM", "BOUND OPERATOR": ">", "MBEC CA-MRSA": 200}
{"COMPOUND": "CCCCCCCCCCCC[N+](C)(C)CCC[N+](C)(CCCC)CCC[N+](C)(C)CCCCCCCCCCCC.[Br-].[Br-].[Br-]", "SCALE UNIT": "µM", "BOUND OPERATOR": "=", "MBEC CA-MRSA": 75}
{"COMPOUND": "C=CC[N+](C)(CC[N+](C)(C)CCCCCCCCCCCC)CC[N+](C)(C)CCCCCCCCCCCC.[Br-].[Br-].[Br-]", "SCALE UNIT": "µM", "BOUND OPERATOR": "=", "MBEC CA-MRSA": 100}
